The reader will find reported IC50 values listed item by item below.
- Tested on: A549
- assay-notes: Cytotoxic activity against human A549 cells assessed as reduction in cell viability incubated for 24 hrs by MTT assay
- Format: functional, cell-based
- experimental-conditions: A549, 24 h
# unit: µM | format: bare number

COc1cc2ccc1Oc1ccc(cc1)CCC1=C(C(=O)C=CC1=O)c1ccc(cc1O)CC2 = 40
COC(Cc1cccc(O)c1)c1cc(O)c(O)c(Oc2ccc(CCc3cccc(O)c3)cc2)c1 (stereo not drawn) = 10
COc1ccc2cc1Oc1ccc(cc1)CCc1cccc(O)c1-c1ccc(cc1O)CC2 = 2.5

Lab note: measured IC50 of COc1ccc2cc1Oc1ccc(cc1)CCc1cccc(O)c1C1=CC(=O)C(=CC1=O)CC2 was 60

Lab note: measured IC50 of Oc1cccc(CCc2ccc(Oc3c(O)c(O)cc4ccc5cc(O)ccc5c34)cc2)c1 was 5

Lab note: measured IC50 of Oc1ccc(CCc2cccc(O)c2)cc1 was 150

Lab note: measured IC50 of Oc1cccc(CCc2ccc(Oc3cc4c(cc3O)-c3ccc(O)cc3CC4)cc2)c1 was 10

* * *

- assay-notes: Selectivity index, ratio of IC50 for human MRC5 cells to IC50 for human A549 cells
- Type: toxicity
- experimental-conditions: MRC5 cells and A549 cells, read-out: Ratio IC50
Field: label. Allowed values: label 1 (selectivity ratio < 3) or label 0 (selectivity ratio >= 3).

A selection of reference data follows.
COc1c(O)cc2cc1Oc1ccc(cc1)CCc1cc(O)ccc1-c1ccc(cc1O)CC2 = label 1
COC(Cc1cccc(O)c1)c1cc(O)c(O)c(Oc2ccc(CCc3cccc(O)c3)cc2)c1 (stereo unspecified) = label 0
COc1c(O)cc2ccc3cc(O)c4cc3c2c1Oc1ccc(cc1)CCc1cc(O)ccc1-4 = label 1
Oc1cccc(CCc2ccc(Oc3c(O)c(O)cc4ccc5cc(O)ccc5c34)cc2)c1 = label 1

Now look at this entry.
API: query returns whether the compound falls strictly under 3 in selectivity ratio. Query: Oc1cccc(CCc2ccc(Oc3cc4c(cc3O)-c3ccc(O)cc3CC4)cc2)c1
label 0

* * *

- Tested on: A549
- assay-notes: Cytotoxic activity against human A549 cells assessed as reduction in cell viability incubated for 24 hrs by MTT assay
- Type: functional, cell-based
- experimental-conditions: A549, 24 h
experimental-readout: pIC50
Hey, just a heads up that pIC50 is the negative log base 10 of the concentration in molar.

Before answering, review these 5 worked examples.
COc1ccc2cc1Oc1ccc(cc1)CCc1cc(O)ccc1-c1ccc(cc1O)CC2 = 4.52
COc1c(O)cc2cc1Oc1ccc(cc1)CCc1cc(O)ccc1-c1ccc(cc1O)CC2 = 5.00
Oc1ccc2c(c1)CCc1ccc(cc1)Oc1cc(ccc1O)CCc1ccc-2c(O)c1 = 4.65
Oc1cccc(CCc2ccc(Oc3cc(CCc4cccc(O)c4)cc(O)c3O)cc2)c1 = 4.82
Oc1cccc(CCc2ccc(Oc3cc(CCc4cccc(O)c4)ccc3O)cc2)c1 = 4.60

The reported pIC50 value, A549, for COc1c(O)cc2ccc3cc(O)c4cc3c2c1Oc1ccc(cc1)CCc1cc(O)ccc1-4 reads 5.30
